- testedSystem: human 5HT2c receptor (Homo sapiens, UniProt P28335, I156V/I160V, form not given)
- Sequence (P28335 whole entry I156V/N158S/I160V, form open): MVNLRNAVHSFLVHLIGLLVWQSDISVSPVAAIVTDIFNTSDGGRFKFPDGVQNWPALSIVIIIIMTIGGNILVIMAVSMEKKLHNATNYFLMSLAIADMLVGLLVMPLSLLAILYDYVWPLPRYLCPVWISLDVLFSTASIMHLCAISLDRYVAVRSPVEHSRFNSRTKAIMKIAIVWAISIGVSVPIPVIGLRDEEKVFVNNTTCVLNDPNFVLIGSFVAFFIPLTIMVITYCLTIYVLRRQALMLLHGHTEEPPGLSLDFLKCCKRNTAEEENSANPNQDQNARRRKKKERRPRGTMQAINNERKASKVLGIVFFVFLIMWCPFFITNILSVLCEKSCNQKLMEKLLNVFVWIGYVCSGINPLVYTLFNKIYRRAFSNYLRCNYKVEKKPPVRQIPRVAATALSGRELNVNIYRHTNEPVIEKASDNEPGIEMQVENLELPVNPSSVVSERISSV
- assayMethodText: Calcium mobilization (FLIPR) 5HT2c receptor agonist assay in HEK 293 EBNA cells
- conditionContext: agonist-stimulated calcium release, HEK 293 EBNA cells expressing human 5HT2c receptor, read-out: 5-HT2c EC50 (hVSV)
pEC50: −log10 of the molar value.
experimentalReadout: pEC50

Use the examples below as a reference point.
// query Provide one value: measured pEC50 of `Fc1ccc(-c2cc3c(s2)CCNCC3)cc1`
// result > 5.00

// query Given the compound `Fc1cccc(Cl)c1Cc1sc2c(c1Br)CCNCC2` , write its reported pEC50.
// result > 5.00

// query Indicate its recorded pEC50; the compound in question is `Clc1c(Br)sc2c1CCNCC2`
// result > 8.00

// query Quick one: give measured pEC50 for CC(C)(C)c1sc2c3c1CCC3CNCC2 (single isomer, unassigned) [39, Enantiomer 2]
// result > 8.00

// query Please indicate pEC50 recorded for `Clc1csc2c1CCNCC2`
// result > 5.00

Continuing:
// query Consider the compound CCC1CNCCc2sc(Br)cc21 (racemic) . State its measured pEC50.
// result > 7.00

// query # return recorded pEC50 for entry `FC(F)(F)c1sc2c(c1Cl)CCNCC2`
// result > 7.00

====

Quick reference: pEC50 of the listed items.
- testedSystem: human 5HT2c receptor (Homo sapiens, UniProt P28335, I156V/I160V, form not given)
- assayMethodText: Calcium mobilization (FLIPR) 5HT2c receptor agonist assay in HEK 293 EBNA cells
- conditionContext: agonist-stimulated calcium release, HEK 293 EBNA cells expressing human 5HT2c receptor, read-out: 5-HT2c EC50 (hVSV)
pEC50: −log10 of the molar value.

// query Look up pEC50 of CC(C)(C)c1sc2c3c1CCC3CNCC2 (single isomer, unassigned) [39, Enantiomer 1] and report it.
// result > 7.00

// query Tell me its pEC50 given `c1ccc(-c2cc3c(s2)CCNCC3)cc1` as the entry.
// result > 5.00

// query Report pEC50, nothing else, for this molecule: `COc1c(Br)sc2c1CCNCC2`
// result > 8.00

// query Provide only the value of recorded pEC50 for `Clc1sc2c(c1Cl)CCNCC2`
// result > 8.00

// query Give the reported value of pEC50 for this record: `Brc1sc2c(c1Br)CCNCC2`
// result > 8.00

More entries:
// query Provide pEC50 value for the following molecule: `Clc1cc2c(s1)CCNCC2`
// result > 7.00

====

- testedSystem: human 5HT2c receptor (Homo sapiens, UniProt P28335, I156V/I160V, form not given)
- assayMethodText: Calcium mobilization (FLIPR) 5HT2c receptor agonist assay in HEK 293 EBNA cells
- conditionContext: agonist-stimulated calcium release, HEK 293 EBNA cells expressing human 5HT2c receptor, read-out: 5-HT2c EC50 (hVSV)
# EC50 annotations

Examples with their reported EC50 follow.
// query Let me know recorded EC50 for `COc1c(C(C)C)sc2c1CCNCC2` , thanks.
// result < 10 nM

// query Identify measured EC50 corresponding to `C=C(C)c1sc2c(c1OC)CCNCC2`
// result < 10 nM

// query Find the measured EC50 of `CN(C)C(=O)c1cc2c(s1)CCNCC2` and report it.
// result < 1000 nM

// query Identify measured EC50 associated with Cc1c(Br)sc2c1C(C)CNCC2 (single isomer, unassigned) [36, Enantiomer 2]
// result < 1000 nM

// query Tell me measured EC50 for `Brc1cc2c(s1)C1(CC1)CNCC2` please.
// result < 1000 nM

Next:
// query Output measured EC50 for this item: `Cc1c(Br)sc2c1CCNCC2`
// result < 10 nM

// query Supply measured EC50 of `FC(F)(F)c1sc2c(c1Br)CCNCC2` in your reply.
// result < 10 nM

// query Input `FC(F)(F)c1ccccc1-c1cc2c(s1)CCNCC2` , output reported EC50.
// result > 10000 nM

// query Tell me EC50 reported for `O=C(NC1CCCC1)c1cc2c(s1)CCNCC2`
// result < 10000 nM

// query Return value of EC50 for input Cc1c(Br)sc2c1C(C)CNCC2 (single isomer, unassigned) [36, Enantiomer 1] , no commentary.
// result > 10000 nM

// query Give reported EC50 value for `CC1(C)CNCCc2cc(Br)sc21`
// result < 10000 nM

Just for reference, patent US7718647B2 is where these values come from.
